# Tested on: HLA-A*1101 (purified HLA class I molecule) (human)
# Procedure details: inhibition of 125I probe peptide binding to purified HLA; ratio to standard peptide
For each of the binders below, state its relative binding ratio.

Below: 7 binders and their reported relative binding ratio.
Entry FSRMARDPQR (also called Her2/neu.976 (10-mer)) [HER2/neu peptide, position 976, 10 amino acids] has what relative binding ratio?
0.001 ratio (IC50 standard / IC50 test)

Entry GAGGMVHHR (also called Her2/neu.1038 (9-mer)) [HER2/neu peptide, position 1038, 9 amino acids] has what relative binding ratio?
0.0043 ratio (IC50 standard / IC50 test)

Entry DLSYMPIWK (also called Her2/neu.607 (9-mer)) [HER2/neu peptide, position 607, 9 amino acids] has what relative binding ratio?
0.01 ratio (IC50 standard / IC50 test)

Entry GTQRCEKCSK (also called Her2/neu.327 (10-mer)) [HER2/neu peptide, position 327, 10 amino acids] has what relative binding ratio?
0.61 ratio (IC50 standard / IC50 test)

Entry EVTAEDGTQR (also called Her2/neu.321 (10-mer)) [HER2/neu peptide, position 321, 10 amino acids] has what relative binding ratio?
0.0001 ratio (IC50 standard / IC50 test)

Entry GLACHQLCAR (also called Her2/neu.508 (10-mer)) [HER2/neu peptide, position 508, 10 amino acids] has what relative binding ratio?
0.0001 ratio (IC50 standard / IC50 test)

Entry GLGISWLGLR (also called Her2/neu.447 (10-mer)) [HER2/neu peptide, position 447, 10 amino acids] has what relative binding ratio?
0.0001 ratio (IC50 standard / IC50 test)

---
Entry CTGTDMKLR (also called Her2/neu.26 (9-mer)) [HER2/neu peptide, position 26, 9 amino acids] has what relative binding ratio?
0.0005 ratio (IC50 standard / IC50 test)
